# targetDesc: UniProt O14684
# Sequence (O14684 whole entry): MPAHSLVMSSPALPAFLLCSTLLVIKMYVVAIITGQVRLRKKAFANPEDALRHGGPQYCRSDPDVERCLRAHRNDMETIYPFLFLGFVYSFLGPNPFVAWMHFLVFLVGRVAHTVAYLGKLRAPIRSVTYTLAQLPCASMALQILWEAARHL
# assayRemarks: Inhibition of mPGES-1 isolated from microsomes of interleukin-1 beta-stimulated human A549 cells using PGH2 as substrate preincubated for 15 mins followed by substrate addition measured after 1 min by RP-HPLC analysis
measuredEndpoint: log10 of IC50 (log10 of the value in nM)
Record value = log10 of IC50 given in nM.

1. Cc1ccc(S(=O)(=O)N(Cc2ccc(Oc3ccccc3)cc2)c2ccc(C(=O)O)cc2)cc1 3.72
2. CC(C)(C)C#Cc1ccc(S(=O)(=O)N(Cc2ccc(C(C)(C)C)cc2)c2ccc(C(=O)O)cc2)cc1 3.43
3. O=C(O)c1ccc(N(Cc2cccc(OCc3ccccc3)c2)S(=O)(=O)c2ccc(-c3ccccc3)cc2)cc1 2.85
4. CC(C)(C)c1ccc(CN(c2ccc(C(=O)O)cc2)S(=O)(=O)c2ccc(C(C)(C)C)cc2)cc1 3.51
5. O=C(O)c1ccc(N(Cc2ccc3ccccc3c2)S(=O)(=O)c2ccc(-c3ccccc3)cc2)cc1 2.48

Using the record for COc1cccc(CN(c2ccc(C(=O)O)cc2)S(=O)(=O)c2ccc(-c3ccccc3)cc2)c1 , state its measured log10 of IC50.
3.79

Using the record for O=C(O)c1ccc(N(Cc2ccc3ccccc3c2)C(=O)c2ccc(-c3ccccc3)cc2)cc1 , state its measured log10 of IC50.
3.46

Using the record for CC(C)(C)c1ccc(CN(c2ccc(C(=O)O)cc2)S(=O)(=O)c2ccc(-c3ccccc3)cc2)cc1 , state its measured log10 of IC50.
3.08

* * *

# targetDesc: Polyunsaturated fatty acid 5-lipoxygenase (Homo sapiens) (UniProt P09917)
# Sequence (whole entry): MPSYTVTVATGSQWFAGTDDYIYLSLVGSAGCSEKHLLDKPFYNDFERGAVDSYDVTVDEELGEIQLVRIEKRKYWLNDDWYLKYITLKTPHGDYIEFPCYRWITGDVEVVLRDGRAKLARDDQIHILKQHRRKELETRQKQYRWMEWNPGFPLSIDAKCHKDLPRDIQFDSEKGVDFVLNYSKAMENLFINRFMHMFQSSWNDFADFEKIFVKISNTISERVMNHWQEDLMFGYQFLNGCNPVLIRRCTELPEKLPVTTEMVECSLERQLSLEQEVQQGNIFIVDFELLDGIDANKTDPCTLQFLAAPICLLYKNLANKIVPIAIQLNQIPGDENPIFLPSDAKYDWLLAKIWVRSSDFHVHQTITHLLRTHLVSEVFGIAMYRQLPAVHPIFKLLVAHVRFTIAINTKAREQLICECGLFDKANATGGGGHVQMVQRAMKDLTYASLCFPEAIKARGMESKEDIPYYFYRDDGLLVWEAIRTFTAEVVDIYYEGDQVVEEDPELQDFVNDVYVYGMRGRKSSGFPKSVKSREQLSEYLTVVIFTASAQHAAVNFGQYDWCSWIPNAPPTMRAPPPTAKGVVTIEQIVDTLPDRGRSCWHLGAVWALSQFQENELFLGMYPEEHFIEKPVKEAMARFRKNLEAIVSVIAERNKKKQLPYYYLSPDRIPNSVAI
# assayRemarks: Inhibition of recombinant human 5-LO expressed in Escherichia coli BL21 (DE3) using arachidonic acid as substrate assessed as residual activity preincubated for 10 mins followed by CaCl2 and substrate addition measured after 10 mins by RP-HPLC analysis
measuredEndpoint: Activity (%)
// units = %; emit number, no label

1. Cc1ccc(S(=O)(=O)N(CC2CCCCC2)c2ccc(C(=O)O)cc2)cc1 91.4
2. O=C(O)c1ccc(N(CC2CCCCC2)S(=O)(=O)c2ccc(F)cc2)cc1 109

Now for a further molecule.
Using the record for O=C(O)c1ccc(N(Cc2cccs2)S(=O)(=O)c2ccc(-c3ccccc3)cc2)cc1 , state its measured Activity.
66.4
